Listing: GI50 of selected molecules
- Test system: SR leukemia
- Protocol Text: NCI tumour cell line growth inhibition, 48 h
Endpoint Label: GI50

test_smiles=CC[C@H](Nc1ncnc2nc[nH]c12)c1oc2ccccc2c(=O)c1-c1cccc(F)c1 endpoint_label=GI50 result="11500 nM"
test_smiles=C=C1C(=O)O[C@H]2[C@H]1CC/C(COC(=O)c1c[nH]c3ccccc13)=C\CC[C@@]1(C)O[C@@H]21 endpoint_label=GI50 result="285 nM"
test_smiles=[Cl-].[La+3].[O-]/N=C(\c1ccccc1)c1ccccn1.[O-]/N=C(\c1ccccc1)c1ccccn1.[O-]/N=C(\c1ccccc1)c1ccccn1 endpoint_label=GI50 result="36500 nM"
test_smiles=Cc1cccc(NC(=O)Cn2cnc3sc(C(=O)OC(C)C)c(C)c3c2=O)c1 endpoint_label=GI50 result="> 50000 nM"
test_smiles=Fc1cc2[nH]ncc2c2c3c(c(-c4cn[nH]c4)nc12)CCCC3 endpoint_label=GI50 result="355 nM"
test_smiles=CN(C(=O)c1ccc(C(F)(F)F)cc1)c1ccc(Oc2ccc3c(c2)cc(C(=O)N2CCN(Cc4ccc(OC(F)F)cc4)CC2)n3C)nc1 endpoint_label=GI50 result="< 10 nM"
test_smiles=COc1cc(/C=C2\CN(S(=O)(=O)c3ccccc3)C/C(=C\c3cc(CN4CCCC4)c(O)c(OC)c3)C2=O)cc(CN2CCCC2)c1O endpoint_label=GI50 result="458 nM"
test_smiles=CCN1CCN(c2nc(C)cc(N(CCNc3ccnc4cc(Cl)ccc34)Cc3ccc4c(c3)OCO4)n2)CC1 endpoint_label=GI50 result="1330 nM"
test_smiles=O=C(/C=C/c1ccc(Cl)cc1)c1ccc(Nc2ccnc3cc(Cl)ccc23)cc1 endpoint_label=GI50 result="565 nM"
test_smiles=O=C(/C=C\c1ccc(Cl)c(Cl)c1)c1ccc(Cl)cc1Cl endpoint_label=GI50 result="7870 nM"

====

- Tested on: NCI-H23 lung
- Protocol Text: NCI tumour cell line growth inhibition, 48 h; in the data active means GI50 below about 0.43 µM; inactive means the rest
Classes used: active, inactive

test_smiles=O=C(CSc1ccc(Cl)cc1)Nc1ccc(-c2nc3ccccc3s2)c(Cl)c1 assayed_system="NCI-H23 lung" assigned_class=inactive
test_smiles=O=C(/C=C/c1ccc(Cl)cc1)c1ccc(Nc2ccnc3cc(Cl)ccc23)cc1 assayed_system="NCI-H23 lung" assigned_class=inactive
test_smiles=C=C1C(=O)O[C@H]2[C@H]1CC/C(COC(=O)c1c[nH]c3ccccc13)=C\CC[C@@]1(C)O[C@@H]21 assayed_system="NCI-H23 lung" assigned_class=inactive
test_smiles=Cc1cc2c(cc1Cl)SC(N(N(C)C)S(=O)(=O)c1ccc(Cl)cc1)=NS2(=O)=O assayed_system="NCI-H23 lung" assigned_class=inactive
test_smiles=[Cl-].[La+3].[O-]/N=C(\c1ccccc1)c1ccccn1.[O-]/N=C(\c1ccccc1)c1ccccn1.[O-]/N=C(\c1ccccc1)c1ccccn1 assayed_system="NCI-H23 lung" assigned_class=inactive
test_smiles=Cc1cc(/C=C/c2ccc3cc(N(C)C)ccc3[n+]2C)c(C)n1-c1ccccc1 assayed_system="NCI-H23 lung" assigned_class=active
test_smiles=CO[C@H]1/C=C(/C)CCC[C@H](C)[C@H](O)[C@@H](C)C(=O)C(C)(C)[C@@H](O)CC(=O)O[C@@H]1/C(C)=C/c1csc(C)n1 assayed_system="NCI-H23 lung" assigned_class=active
test_smiles=COc1cc(/C=C/c2cc(O)c(C(C)=O)c(O)c2)cc2c1O[C@]1(C)CC[C@@H](O)C(C)(C)[C@H]1C2 assayed_system="NCI-H23 lung" assigned_class=inactive

src = PubChem BioAssay (NCI)
